Origin of the recorded values: ChEMBL document CHEMBL1765069

target: Cannabinoid receptor 2 (Homo sapiens, UniProt P34972); test: Agonist activity at human CB2 receptor expressed in CHOK1 cells assessed as inhibition of forskolin-induced cAMP production treated 15 mins before forskolin challenge measured after 1 hr by HTRF assay
Sequence (P34972 whole entry): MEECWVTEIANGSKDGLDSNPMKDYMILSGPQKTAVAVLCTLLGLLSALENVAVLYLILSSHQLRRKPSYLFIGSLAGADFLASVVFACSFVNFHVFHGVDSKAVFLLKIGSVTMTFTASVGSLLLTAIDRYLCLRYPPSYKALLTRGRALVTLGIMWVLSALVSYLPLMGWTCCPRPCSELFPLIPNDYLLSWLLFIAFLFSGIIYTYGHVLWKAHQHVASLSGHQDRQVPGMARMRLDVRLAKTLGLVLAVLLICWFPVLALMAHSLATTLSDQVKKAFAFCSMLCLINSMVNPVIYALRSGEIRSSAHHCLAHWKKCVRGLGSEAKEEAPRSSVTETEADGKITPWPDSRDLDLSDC
MEASURED ENDPOINT: IC50

See these solved cases before continuing.
> print(dat)
                                   molecule  test.result
1  O=C(c1ccc2cnccc2n1)N1CC[C@@](O)(c2ccccc2)[C@@H]2CCCC[C@@H]21 (racemic)       5.5 nM
2  O=C(c1nnc[nH]1)N1CC[C@@](O)(c2ccccc2)[C@@H]2CCCC[C@@H]21 (racemic)       282 nM
3  N#Cc1cccc([C@@]2(O)CCN(C(=O)c3ccccc3)[C@H]3CCCC[C@@H]32)c1      1050 nM
4  O=C(c1ccccc1)N1CC[C@](O)(c2cccc(Cl)c2)[C@H]2CCCC[C@@H]21       493 nM
5  O=C1CC(C(=O)N2CC[C@@](O)(c3ccccc3)[C@@H]3CCCC[C@@H]32)CN1 (mixture of isomers)      3470 nM

We now examine a further molecule.
Query string: # get_value(readout='IC50', item= Cc1ccc(C(=O)N2CC[C@@](O)(c3ccccc3)[C@@H]3CCCC[C@@H]32)cn1 )
Result string: 7.3 nM
